These data points were gathered from patent US20110217237A1.

study target: T1, human DLL4 extracellular domain (human, UniProt Q9NR61 27-529)
T1 construct: purified recombinant ECD; biotin-labelled or 6xHis-tagged depending on the assay; also called huDLL4 ECD; hu DLL4 ECD
T1 sequence (Q9NR61 27-529 limits assumed): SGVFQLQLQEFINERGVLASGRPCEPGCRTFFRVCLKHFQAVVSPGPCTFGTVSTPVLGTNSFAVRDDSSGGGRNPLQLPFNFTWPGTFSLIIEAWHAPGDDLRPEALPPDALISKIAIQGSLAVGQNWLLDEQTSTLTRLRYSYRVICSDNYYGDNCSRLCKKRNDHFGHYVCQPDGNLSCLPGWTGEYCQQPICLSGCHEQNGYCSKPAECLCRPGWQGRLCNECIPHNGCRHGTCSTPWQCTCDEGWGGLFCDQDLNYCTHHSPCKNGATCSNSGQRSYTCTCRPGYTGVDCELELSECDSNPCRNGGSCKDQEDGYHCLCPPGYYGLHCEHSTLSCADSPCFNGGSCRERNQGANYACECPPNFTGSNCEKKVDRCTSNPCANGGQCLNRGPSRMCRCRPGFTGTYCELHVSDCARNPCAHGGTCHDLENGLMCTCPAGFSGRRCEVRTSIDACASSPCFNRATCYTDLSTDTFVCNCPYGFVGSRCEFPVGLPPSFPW
experiment description: SPR (Biacore)
attribute measured: pKd
Scale explanation: pKd corresponds to minus log10 of a concentration expressed in moles per litre.

Query block: Field request: pKd | item: h38H12.8 (antibody, V domains shown, humanized IgG; also called VH.1a/VL.2a 38H12) VH: EVQLVESGGGVVQPGRSLRLSCAASGFTFSNYGMYWIRQAPGKGLEWVAFISHGGGITYYRDSVKGRFTISRDNSKSTLYLQMNSLRAEDTAVYHCAALNWELGIDYWGQGTMVTVSS VL: EIVMTQSPATLSVSPGERATLSCRASEDIYSNLAWYQKKPGQSPRLLIYAANRLQDGVPARFSGSGSGTEYTLTISSLQSEDFAVYFCLQGSKFPLTFGQGTKLEIKR
Result block: 9.40

Query block: Field request: pKd | item: h38H12.13 (antibody, V domains shown, humanized IgG; also called VH.2a/VL.1 38H12) VH: EVQLVESGGGLVQPGGSLRLSCAASGFTFSNYGMYWIRQAPGKGLEWVAFISHGGGITYYRDSVKGRFTISRDNSKSTLYLQMNSLRAEDTAVYHCAALNWELGIDYWGQGTMVTVSS VL: DIQMTQSPSSLSASVGDRVTITCRASEDIYSNLAWYQQKPGKAPKLLIYAANRLQDGVPSRFSGSGSGTDFTLTISSLQPEDFATYYCLQGSKFPLTFGQGTKLEIKR
Result block: 9.29

Query block: Field request: pKd | item: h38H12.15 (antibody, V domains shown, humanized IgG; also called VH.2a/VL.1b 38H12) VH: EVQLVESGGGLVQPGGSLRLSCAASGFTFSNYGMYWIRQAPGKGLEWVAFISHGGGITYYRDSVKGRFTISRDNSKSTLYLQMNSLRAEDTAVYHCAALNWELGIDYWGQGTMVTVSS VL: DIQMTQSPSSLSASVGDRVTITCRASEDIYSNLAWYQQKPGKAPKLLIYAANRLQDGVPSRFSGSGSGTDYTLTISSLQPEDFATYYCLQGSKFPLTFGQGTKLEIKR
Result block: 9.45

Query block: Field request: pKd | item: h38H12.16 (antibody, V domains shown, humanized IgG; also called VH.2a/VL.2a 38H12) VH: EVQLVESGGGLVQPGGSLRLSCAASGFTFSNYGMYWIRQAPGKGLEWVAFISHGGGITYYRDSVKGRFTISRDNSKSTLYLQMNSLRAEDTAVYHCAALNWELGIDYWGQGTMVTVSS VL: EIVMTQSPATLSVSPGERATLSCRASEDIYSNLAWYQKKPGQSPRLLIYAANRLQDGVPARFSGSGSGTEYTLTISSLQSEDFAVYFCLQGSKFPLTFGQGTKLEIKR
Result block: 9.41

Query block: Field request: pKd | item: h38H12.7 (antibody, V domains shown, humanized IgG; also called VH.1a/VL.1b 38H12) VH: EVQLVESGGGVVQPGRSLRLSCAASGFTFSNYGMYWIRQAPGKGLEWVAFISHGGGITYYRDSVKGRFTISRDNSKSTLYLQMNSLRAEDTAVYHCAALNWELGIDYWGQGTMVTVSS VL: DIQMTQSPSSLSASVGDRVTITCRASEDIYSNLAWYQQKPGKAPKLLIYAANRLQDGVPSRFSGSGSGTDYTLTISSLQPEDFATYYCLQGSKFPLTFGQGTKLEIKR
Result block: 9.47
